System: Myzus persicae (Green Peach Aphid)
Assay: Activity against Myzus persicae, pea seedlings with roots in test solution (Example B2)
Type: in vivo
Details: 144 h, read-out: control of Myzus persicae (mortality)
Field: mortality at 24 ppm. Provide a value for each of the molecules that follow.

# smiles_string, recorded_metric, experimental_result
rows = [
    ("C=CCN1[C@@H]2C=C[C@H]1C[C@](C(N)=S)(c1cncc(I)c1)C2", "mortality at 24 ppm", "≥ 80%"),
    ("NC(=S)[C@@]1(c2cncc(Cl)c2)C[C@H]2C=C[C@@H](C1)N2CC(F)F", "mortality at 24 ppm", "≥ 80%"),
]

// next item, mortality at 24 ppm requested
Notebook: "C=C(Cl)CN1[C@@H]2C=C[C@H]1C[C@](C(N)=S)(c1cncc(C#N)c1)C2" , mortality at 24 ppm read as ≥ 80%
